Recorded Population Apoptotic (%) values for a group of molecules are listed next.
tested on: Fibroblast; test: Multiplex assay against human fibroblast; format: toxicity, cell-based; details: 24 h, 1 µM, compound concentration 1 uM, replicate 2

[
  {
    "MOLECULE": "O=C1N/C(=N/c2ccccc2F)S/C1=C\\c1ccc(C(=O)O)cc1",
    "Population Apoptotic (%)": 0
  },
  {
    "MOLECULE": "COc1cc(N2CCN(C)CC2)ccc1Nc1ncc2c(n1)N(C)c1ccccc1C(=O)N2C",
    "Population Apoptotic (%)": 50
  },
  {
    "MOLECULE": "CCN1CCN(c2ccc(Nc3cc(N(C)C(=O)Nc4c(Cl)c(OC)cc(OC)c4Cl)ncn3)cc2)CC1 [INFIGRATINIB]",
    "Population Apoptotic (%)": 66
  },
  {
    "MOLECULE": "Cl.Oc1ccc2c3c1O[C@H]1c4[nH]c5c(c4C[C@@]4(O)[C@@H](C2)N(CC2CC2)CC[C@]314)C[C@@]1(O)[C@H]2Cc3ccc(O)c4c3[C@@]1(CCN2CC1CC1)[C@H]5O4",
    "Population Apoptotic (%)": 25
  },
  {
    "MOLECULE": "Cc1ccc(C(=O)Nc2cccc(C(F)(F)F)c2)cc1Nc1nc(-c2cccnc2)nc2c1cnn2C",
    "Population Apoptotic (%)": 27
  },
  {
    "MOLECULE": "CCCn1c(=O)c2[nH]c(-c3cnn(Cc4cccc(C(F)(F)F)c4)c3)nc2n(CC)c1=O [GS 6201]",
    "Population Apoptotic (%)": 50
  },
  {
    "MOLECULE": "S=C(NCCCc1c[nH]cn1)NCCCN(Cc1ccc(Cl)c(Cl)c1)c1ccc(Br)cn1",
    "Population Apoptotic (%)": 0
  },
  {
    "MOLECULE": "CN1C2CCC1CC(OC(c1ccc(F)cc1)c1ccc(F)cc1)C2.Cl (centres undefined)",
    "Population Apoptotic (%)": 20
  },
  {
    "MOLECULE": "Cc1ccc2nc(NCCN)c3ncc(C)n3c2c1.O=C(O)C(F)(F)F.O=C(O)C(F)(F)F",
    "Population Apoptotic (%)": 66
  },
  {
    "MOLECULE": "CCCS(=O)(=O)c1nc(NC2CC2)cc(-c2ccc3c(ccn3C3CC(C)(C)NC(C)(C)C3)c2)n1",
    "Population Apoptotic (%)": 22
  },
  {
    "MOLECULE": "CCOC(=O)c1c(C)[nH]c2ccc3c(c12)CN1CCc2cc(OC)ccc2C1O3 (centres undefined)",
    "Population Apoptotic (%)": 8
  },
  {
    "MOLECULE": "Cl.O=C(c1ccc(Nc2nccc(-c3cc4ccccc4s3)n2)cc1)N1CCC(N2CCCC2)CC1",
    "Population Apoptotic (%)": 0
  },
  {
    "MOLECULE": "O=C1NC(=O)C(c2cnc3ccccn23)=C1c1cn2c3c(cc(F)cc13)CN(C(=O)N1CCCCC1)CC2 [LY-2090314]",
    "Population Apoptotic (%)": 80
  },
  {
    "MOLECULE": "O=C(Nc1cccnn1)N1CCC(=Cc2cccc(Oc3ccc(C(F)(F)F)cn3)c2)CC1",
    "Population Apoptotic (%)": 60
  }
]

----------
system: Fibroblast; experiment: Multiplex assay against human fibroblast; assay type: toxicity, cell-based; details: 48 h, 1 µM, compound concentration 1 uM, replicate 1
Recorded Population Tubulin-Different-Phenotype (%) values for a group of compounds are listed next.
READOUT NAME: Population Tubulin-Different-Phenotype (%)

[
  {
    "COMPOUND": "Cl.O=c1c2cccn2c2ccccc2n1CCCN1CCC(c2ccc(Cl)cc2)CC1",
    "MEASURED RESULT": 47
  },
  {
    "COMPOUND": "C=C1/C(=C\\C=C2/CCC[C@]3(C)[C@@H]([C@H](C)/C=C/[C@H](C)C(C)C)CC[C@@H]23)C[C@@H](O)C[C@@H]1O [DOXERCALCIFEROL]",
    "MEASURED RESULT": 35
  },
  {
    "COMPOUND": "Cc1cn(-c2cc(NC(=O)c3ccc(C)c(Nc4nccc(-c5cccnc5)n4)c3)cc(C(F)(F)F)c2)cn1 [NILOTINIB]",
    "MEASURED RESULT": 72
  },
  {
    "COMPOUND": "Cc1cc(C)c(S(=O)(=O)N(Cc2ccc(-c3cccc(S(C)(=O)=O)c3)cc2)Cc2ccc(C(F)(F)F)o2)c(C)c1",
    "MEASURED RESULT": 40
  },
  {
    "COMPOUND": "CCc1cccc(CC)c1NC(=O)c1nn(C)c2c1CCc1cnc(Nc3ccc(C(=O)NC4CCN(C)CC4)cc3OC(F)(F)F)nc1-2",
    "MEASURED RESULT": 40
  },
  {
    "COMPOUND": "Cl.Oc1ccc2c3c1O[C@H]1c4[nH]c5c(c4C[C@@]4(O)[C@@H](C2)N(CC2CC2)CC[C@]314)C[C@@]1(O)[C@H]2Cc3ccc(O)c4c3[C@@]1(CCN2CC1CC1)[C@H]5O4",
    "MEASURED RESULT": 43
  },
  {
    "COMPOUND": "CN1CCC(=C2c3ccccc3CC(=O)c3sccc32)CC1.O=C(O)/C=C/C(=O)O [KETOTIFEN FUMARATE]",
    "MEASURED RESULT": 34
  },
  {
    "COMPOUND": "S=C(NCCCc1c[nH]cn1)NCCCN(Cc1ccc(Cl)c(Cl)c1)c1ccc(Br)cn1",
    "MEASURED RESULT": 36
  },
  {
    "COMPOUND": "Cc1ccc(C(=O)Nc2cccc(C(F)(F)F)c2)cc1Nc1nc(-c2cccnc2)nc2c1cnn2C",
    "MEASURED RESULT": 59
  }
]

----------
test system: Fibroblast; test: Multiplex assay against human fibroblast; type: toxicity, cell-based; conditions: 12 h, 10 µM, compound concentration 10 uM, replicate 1
Recorded Population Mitotic Cells (%) values for a group of compounds are listed next.

[
  {
    "SAMPLE SMILES": "Cc1ccc2nc(NCCN)c3ncc(C)n3c2c1.O=C(O)C(F)(F)F.O=C(O)C(F)(F)F",
    "MEASUREMENT UNITS": "%",
    "Population Mitotic Cells (%)": 23
  },
  {
    "SAMPLE SMILES": "NC(=O)c1cccc(-c2cc(Nc3ccc(OC(F)(F)F)cc3)ncn2)c1",
    "MEASUREMENT UNITS": "%",
    "Population Mitotic Cells (%)": 30
  },
  {
    "SAMPLE SMILES": "CNC(=O)c1ccc(Nc2nc(OC3CCCC3)c3c(-c4ccc5nc(C)oc5c4)c[nH]c3n2)c(OC)c1",
    "MEASUREMENT UNITS": "%",
    "Population Mitotic Cells (%)": 22
  }
]

----------
test system: HEK-293T; assay: Multiplex assay against HEK293T; assay type: toxicity, cell-based; conditions: human, 12 h, 1 µM, compound concentration 1 uM, replicate 1
Binary label based on Population Fragmented Nuclei (%) with cut-off 10%: below gives yes, not below gives no.

[
  {
    "SAMPLE SMILES": "CCNc1cc(N[C@H]2CC[C@H](O)CC2)nc(Nc2ccc3c(ccn3Cc3ccccc3)c2)n1",
    "CLASS": "no"
  },
  {
    "SAMPLE SMILES": "CCn1c(=O)c(-c2ccc(-c3cncs3)cc2Cl)cc2cnc(Nc3ccc(N4CCN(C)CC4)cc3)nc21",
    "CLASS": "yes"
  },
  {
    "SAMPLE SMILES": "Cc1cc(C)c(S(=O)(=O)N(Cc2ccc(-c3cccc(S(C)(=O)=O)c3)cc2)Cc2ccc(C(F)(F)F)o2)c(C)c1",
    "CLASS": "no"
  },
  {
    "SAMPLE SMILES": "COc1cc(N2CCN(C)CC2)ccc1Nc1ncc2c(n1)N(C)c1ccccc1C(=O)N2C",
    "CLASS": "yes"
  },
  {
    "SAMPLE SMILES": "CCc1cccc(CC)c1NC(=O)c1nn(C)c2c1CCc1cnc(Nc3ccc(N4CCN(C)CC4)cc3OC)nc1-2",
    "CLASS": "no"
  }
]

----------
system: U2OS; assay: Multiplex assay against U2OS; type: toxicity, cell-based; details: human, 12 h, 10 µM, compound concentration 10 uM, replicate 2
Binary label based on Population Mitochondria Different-Phenotype (%) with cut-off 70%: below gives True, not below gives False.

[
  {
    "MOLECULE": "Cl.O=c1c2cccn2c2ccccc2n1CCCN1CCC(c2ccc(Cl)cc2)CC1",
    "MEASURED TARGET": "U2OS",
    "CLASS": "False"
  },
  {
    "MOLECULE": "CCOC(=O)c1c(C)[nH]c2ccc3c(c12)CN1CCc2cc(OC)ccc2C1O3 (stereo not drawn)",
    "MEASURED TARGET": "U2OS",
    "CLASS": "False"
  },
  {
    "MOLECULE": "CNC(=O)c1ccc(Nc2nc(OC3CCCC3)c3c(-c4ccc5nc(C)oc5c4)c[nH]c3n2)c(OC)c1",
    "MEASURED TARGET": "U2OS",
    "CLASS": "True"
  },
  {
    "MOLECULE": "S=C(NCCCc1c[nH]cn1)NCCCN(Cc1ccc(Cl)c(Cl)c1)c1ccc(Br)cn1",
    "MEASURED TARGET": "U2OS",
    "CLASS": "False"
  },
  {
    "MOLECULE": "COc1ccc(S(=O)(=O)N(CCO)c2ccccc2CN(C)C/C=C/c2ccc(Cl)cc2)cc1.O=P(O)(O)O",
    "MEASURED TARGET": "U2OS",
    "CLASS": "True"
  },
  {
    "MOLECULE": "Cc1cc(C)c(S(=O)(=O)N(Cc2ccc(-c3cccc(S(C)(=O)=O)c3)cc2)Cc2ccc(C(F)(F)F)o2)c(C)c1",
    "MEASURED TARGET": "U2OS",
    "CLASS": "True"
  },
  {
    "MOLECULE": "O=C(Nc1ccc(-c2ccnc(Nc3ccc(N4CCOCC4)cc3)n2)cc1)[C@@H]1CCCN1",
    "MEASURED TARGET": "U2OS",
    "CLASS": "True"
  }
]

// provenance: ChEMBL document CHEMBL4689842
